Test system: L1210 leukemia ip in BDF1 mice, survival T/C
assay.notes: NCI In Vivo Anticancer Drug Screen. Data for tumor model L1210 Leukemia (intraperitoneal) in B6D2F1 (BDF1) mice
assay.setup: endpoint: mean survival time; dose: 50.0 mg/kg/injection; schedule: Q01DX009 (ip); vehicle: saline with Tween-80; higher = longer survival
Inconclusive results and toxic doses are left out.
attribute.measured: T/C

Some solved cases for reference:
Query string: Suppose we examine the molecule C=C1C(=O)O[C@H]2C[C@@H](C)[C@@H]3CC(=O)OC[C@@]3(C)CC12 (stereo partly drawn) ; what T/C value has been reported?
Result string: 105 % of control

Query string: Same read-out for "CC(C)(CBr)COS(=O)(=O)c1ccc(Br)cc1" ?
Result string: 89 % of control

Query string: Same read-out for "COC(=O)N/N=C/Cc1ccccc1" ?
Result string: 90 % of control

Next:
Query string: Suppose we examine the molecule "COc1ccc([N+](=O)[O-])c2conc12" ; what T/C value has been reported?
Result string: 95 % of control

Query string: Same read-out for "C/C=C/C1N(C)CCCN1C" ?
Result string: 98 % of control

Query string: Same read-out for "SCCSCCNc1ccccc1" ?
Result string: 101 % of control

Query string: Same read-out for "N#Cc1nc2nc(C(F)(F)F)[nH]c2nc1C#N" ?
Result string: 93 % of control

Query string: Same read-out for "C=CCOCCC#N" ?
Result string: 97 % of control

====

System: L1210 leukemia ip in BDF1 mice, survival T/C
assay.notes: NCI In Vivo Anticancer Drug Screen. Data for tumor model L1210 Leukemia (intraperitoneal) in B6D2F1 (BDF1) mice
assay.setup: endpoint: mean survival time; dose: 400.0 mg/kg/injection; schedule: Q01DX001 (ip); vehicle: carboxymethylcellulose (CMC); higher = longer survival
Toxic doses and inconclusive results are not listed.
Reported T/C values are given for each entry in this list.

Some solved cases for reference:
Query string: Suppose we examine the compound CC(C(=O)c1ccc(O)c(O)c1)N1CCCCC1 (stereo not drawn) ; what T/C value has been reported?
Result string: 96 % of control

Query string: Same read-out for "CC(C)(C)OC(=O)N1C2CCC(C2)N1C(=O)OC(C)(C)C" ?
Result string: 96 % of control

Query string: Same read-out for "O=[N+]([O-])c1cc(Cl)cc2c1-c1ccc(Cl)cc1/C2=N\O" ?
Result string: 103 % of control

Next:
Query string: Suppose we examine the compound "COc1cc(N(CCCl)CCCl)c(OC)cc1/C=N\Nc1nnc(C)n1N" ; what T/C value has been reported?
Result string: 97 % of control

Query string: Same read-out for "c1ccc2c(c1)-c1ccccc1-2" ?
Result string: 103 % of control

Query string: Same read-out for "CCS(=O)(=O)c1ccc(NC(=O)OCc2ccccc2)cc1" ?
Result string: 92 % of control

====

Tested on: L1210 leukemia ip in BDF1 mice, survival T/C
assay.notes: NCI In Vivo Anticancer Drug Screen. Data for tumor model L1210 Leukemia (intraperitoneal) in B6D2F1 (BDF1) mice
assay.setup: endpoint: mean survival time; dose: 100.0 mg/kg/injection; schedule: Q01DX009 (ip); vehicle: saline; higher = longer survival
Toxic doses and inconclusive results are not listed.
attribute.measured: T/C

Query string: Form entry - test system: L1210 leukemia ip in BDF1 mice, survival T/C; read-out: T/C; molecule: O=C(O)C(O)C(O)C(=O)O (stereo not drawn)
Result string: 106 % of control

Query string: Same read-out for "Nc1nc(N)c2nc3c(nc2n1)C(=O)N(c1ccc(C(=O)O)cc1)C3" ?
Result string: 90 % of control

Would you kindly look at the next entry?
Query string: Form entry - test system: L1210 leukemia ip in BDF1 mice, survival T/C; read-out: T/C; molecule: O=C(O)C(Cc1ccc(O)cc1)NC(=O)C(CSC(c1ccccc1)(c1ccccc1)c1ccccc1)NC(c1ccccc1)(c1ccccc1)c1ccccc1 (stereo not drawn)
Result string: 95 % of control
